Test system: Plasmodium falciparum
procedure text: Primary screen in NF54 nanoGlo assay, in single point, at 2uM, 72h
Format: functional, Erythrocyte
measurement conditions: timepoint 72 hour
Screen size: about 150,000 compounds; about 540 (0.36%) showed an effect of 50% or more. The sample holds strong results, similar compounds and a random draw of the others, so the mix is not that of the screen.
Returns: string. Value is 1 if measured Z score is below -4, and -1 if it is greater than or equal to it.

Before answering, review these 5 worked examples.
> print(dat)
                            smiles.notation  class
1         Cc1cnccc1NCCNc1ncc(F)c(N2CCCC2)n1     -1
2          Cc1cnccc1NCCNCc1cnc(N2CCCCC2)nc1      1
3  Cc1cnccc1NCCNC1CCN(C(=O)[C@@H]2CCCO2)CC1     -1
4  Cc1ccc2nc(CCCNC3CCN(c4cc(C)nc(N)n4)CC3)oc2c1      1
5  Cc1cc(N2CCC(NCCCN3CCCc4ccccc43)CC2)nc(N)n1      1

[Q] hey, is Z score for `Cc1cc(N2CCC(NCCc3cnn(-c4ccccc4)c3)CC2)nc(N)n1` lower than -4 or not?
[A] -1

###

Tested on: Plasmodium falciparum
procedure text: Primary screen in NF54 nanoGlo assay, in single point, at 2uM, 72h
Type: functional, Erythrocyte
measurement conditions: timepoint 72 hour
About 540 (0.36%) of roughly 150,000 compounds showed an effect of 50% or more. The list comes from a sample in which strong results are over-represented; it also holds close analogues and randomly drawn compounds.
recorded endpoint: % Inhibition (%)
Give bare numbers, in %.

For orientation, consider the following solved cases.
> print(dat)
                                   compound  meas.value
1  O=C(NC1CNCCC1O)c1cc2c(Cl)cccc2[nH]1 (stereo not given)          -3
2     COc1ccnc(CN2CC[C@H](Nc3ncccn3)C2)c1OC          -5
3  c1ccc(CCC23CN(Cc4ccccn4)CC2CN(Cc2ccns2)C3)cc1 (stereo not given)          86
4  Cn1cc(CC(=O)N2CC3CN(Cc4ccns4)CC3(CO)C2)c2ccccc21 (stereo not given)          -3

Notebook: `NS(=O)(=O)Cc1cccc(NC(=O)c2cc(F)cc3c(=O)c4cccc(F)c4[nH]c23)c1` , % Inhibition read as -8

###

Test system: Plasmodium falciparum
procedure text: Primary screen in NF54 nanoGlo assay, in single point, at 2uM, 72h
Format: functional, Erythrocyte
measurement conditions: timepoint 72 hour
About 540 (0.36%) of roughly 150,000 compounds showed an effect of 50% or more. The list comes from a sample in which strong results are over-represented; it also holds close analogues and randomly drawn compounds.
Note to self: Z score under -0.2 means True, ties and anything higher get False.

As a guide, the following entries are already answered.
> print(dat)
                                   compound  class
1        Cc1cnccc1NCCNCc1ccc(OC(C)C)c(Cl)c1   True
2  CN(c1ccccc1)c1ccc(CN2CCN([C@H]3CCNC3)CC2)cc1   True
3  Cc1ccccc1-c1cccc(N2CCC(NCC3CCNCC3)CC2)c1   True

[Q] Hello, is Z score of the following compound strictly smaller than -0.2? `Cc1ccc2[nH]c(-c3cc4n(n3)CCN(c3ccnc(N)n3)C4)nc2c1C`
[A] True

[Q] Determine whether this compound shows Z score lower than -0.2 (ties excluded): `O=C1CN(C(=O)c2ccnc3ccccc23)CCN1Cc1ccccc1F`
[A] True

[Q] Is Z score strictly under -0.2 for the entry `Cc1noc(-c2ccnc(NCCc3coc(-c4ccccc4)n3)c2)n1` ?
[A] False

###

Test system: Plasmodium falciparum
procedure text: Primary screen in NF54 nanoGlo assay, in single point, at 2uM, 72h
Assay type: functional, Erythrocyte
measurement conditions: timepoint 72 hour
Among all 150,000 compounds or so, about 540 (0.36%) showed an effect of 50% or more. This excerpt belongs to a sample that is enriched for strong results.
Exercise: state measured % Inhibition for each of the compounds provided.
One number for each entry, in %.

Completed entries (count: 5):
> print(dat)
                                   compound  units.label  meas.value
1  c1ccc(CNc2ccc(-c3noc(C45CCCN(CCC4)C5)n3)cn2)cc1            %          81
2    CC(C)N1CCN(CCCN2CCN(C)C3(CCCCC3)C2)CC1            %           3
3  O=C1CN(C2CCN(CC3CCCCC3)CC2)[C@]2(CCOC2)CN1Cc1ccccc1            %          -8
4  CN(C)Cc1cccc(CCNCc2csc(-c3ccc(C(F)(F)F)cc3)n2)c1            %          51
5      CCCCN1CCC(NC(=O)c2c[nH]c3ncccc23)CC1            %          -8

List % Inhibition for every entry below, keeping the order given.
1. C[C@H]1CCCN(CCOc2ccccc2CN2CCN(c3cccnc3)CC2)C1
2. N[C@H]1CC[C@@H](NC2CCN(c3ccc(F)c(F)c3)CC2)CC1
3. CN1CC(=O)N2C[C@@H](NC(=O)c3cccc(-c4ccc(N)nc4)c3)C[C@H]2C1=O
4. Fc1ccc(N2CCC(N[C@@H]3COC4(CCNCC4)C3)CC2)cc1F
5. Cc1n[nH]nc1C(=O)Nc1ccc2[nH]c(-c3cccc(F)c3)nc2c1
6. C[C@@H](c1cccc(-c2nccc3ncccc23)c1)N1CCCC1
7. Cc1cnccc1N1CCCN(Cc2ccccc2OCCN2CCN(C)CC2)CC1

[A]
1. -2
2. 53
3. -16
4. 23
5. 1
6. -7
7. 96

Batch: % Inhibition for all items listed.
1. CN1CCN(CCOc2ccccc2CN2CC3CCC(C2)NC3)CC1 (configuration not stated)
2. Cc1cc(N2CCC(NCc3ccc(C(F)(F)F)cc3F)CC2)nc(N)n1
3. NC(=O)[C@H]1CCCN(CCCNc2cc(C(F)(F)F)nc(N3CCCC3)n2)C1
4. CN1CCN(C[C@H]2CCCN(CC(C)(C)N3CCOCC3)C2)CC1
5. CC(C)c1ccc(-c2nc(CN3CCCCC3)cc(CN3CCCCC3)c2O)cc1
6. O=C(NCC1CC1)c1cc2c(OCc3ccc(Cl)cc3)cccc2[nH]1

[A]
1: -1; 2: 10; 3: -5; 4: -20; 5: 90; 6: 51

Batch: % Inhibition for all items listed.
1. Cc1cc(N2CCC(NC3CCCC3Cc3ccc(F)cc3)CC2)nc(N)n1 (configuration not stated)
2. Cc1ccccc1CN1CCC(CNc2c3c(nc4ccccc24)CCC3)CC1
3. COC(=O)c1cn(CCNc2ccnc3cc(Cl)ccc23)cc2c(O)nnc1-2
4. Cc1cnccc1NCCNc1nc(C(C)(C)C)nc2c1cnn2C

[A]
96
94
97
20

###

System: Plasmodium falciparum
procedure text: Primary screen in NF54 nanoGlo assay, in single point, at 2uM, 72h; a lower Z score goes with more inhibition
Type: functional, Erythrocyte
measurement conditions: timepoint 72 hour
About 540 (0.36%) of roughly 150,000 compounds showed an effect of 50% or more. The sample holds strong results, similar compounds and a random draw of the others, so the mix is not that of the screen.
recorded endpoint: Z score
Give bare numbers.

> print(dat)
                                   molecule  recorded.endpoint  meas.value
1  N#Cc1ccc(N2C[C@H](COCC3CC3)C3(CCN(Cc4cccc(O)c4)CC3)C2)cc1C(F)(F)F            Z score      -14.34

Value sought for every listed molecule: Z score.
1. CCOc1cc(C(=O)NC2CCN(CC3CCCC3)CC2)cc(-c2ccccc2)c1OC
2. Cn1cc(CC(=O)N2CC3CN(Cc4ccns4)CC3(CO)C2)c2ccccc21 (centres undefined)
3. CCN(Cc1[nH]c2ccc(Cl)cc2c1C)CC1CCN(C2CCN(C)CC2)CC1
4. CCCCN1CCC(NC(=O)c2c[nH]c3ncccc23)CC1
5. Fc1ccc2ncnc(NC3CCN(C[C@H]4CCOC4)CC3)c2c1

[A]
[-12.46, 0.46, -14.61, 1.66, 2.15]

Hi there! I need Z score for each item below, if you can.
1. COc1ccc2[nH]c(CN(Cc3cccnc3)CC3CCN(C4CCCC4)CC3)c(C)c2c1
2. C[C@@H](c1cc2ccccc2o1)N(C)CCC(=O)N1CCN(c2ccc(F)cc2)CC1
3. Cc1cccc([C@@H](C)CNC2CCN(CCN3CCOCC3)CC2)c1

[A]
-0.23
0.48
0.67

Hey, can you go through the list below and give me Z score for every item?
1. C[C@@H](CNC1CCN(C2CCN(C)CC2)CC1)c1cccc(Cl)c1
2. CCCc1cccc(CNC2CCN(C3CCN(C)CC3)CC2)c1
3. Cc1c(CN2CCC(O)(Cn3ccnc3)CC2)[nH]c2c(Cl)cccc12
4. FC(F)(F)Oc1cccc(CNC2CCN(C3CC3)CC2)c1

[A]
[-17.23, -16.27, -16.38, 2.24]

Entry source: ChEMBL document CHEMBL5308541
